Each record here notes measured melting point.

Record excerpt, results attached:
Find the recorded melting point belonging to `CCCOc1ccc(F)c2c(=O)c(-c3ccc(OC)cc3)c(CN3CCN(c4ccccn4)CC3)[nH]c12` and report it.
211 to 212 °C

Find the recorded melting point belonging to `CCCOc1cc2c(c3c(=O)c(-c4ccc(OC)cc4)cn(CCCN4CCOCC4)c13)CCC2` and report it.
135 to 137 °C

Find the recorded melting point belonging to `CCCOc1ccc(F)c2c(=O)c(-c3ccc(Cl)cc3Cl)cn(COP(=O)([O-])[O-])c12.[Na+].[Na+]` and report it.
208 to 210 °C

Find the recorded melting point belonging to `CCCOc1ccc(F)c2c(=O)c(-c3ccc(OC)cc3)cn(CCC(=O)OCCN3CCN(C)CC3)c12.Cl.Cl` and report it.
150 to 152 °C

Find the recorded melting point belonging to `CCCOc1ccc(F)c2c(=O)c(-c3ccc(OC)cc3)cn(COC(=O)c3ccc(OP(=O)([O-])[O-])cc3)c12.[Na+].[Na+]` and report it.
205 to 207 °C

Find the recorded melting point belonging to `CCCOc1ccc(F)c2c(=O)c(-c3ccc(OC)cc3)cn(CC(=O)NCCN3CCOCC3)c12` and report it.
139 to 141 °C

Others:
Find the recorded melting point belonging to `CCCOc1ccc(F)c2c(=O)c(-c3ccc(OC)cc3)cn(CC(=O)NC3CCNCC3)c12` and report it.
226 to 228 °C

Find the recorded melting point belonging to `CCCOc1cc2ccccc2c2c(=O)c(-c3ccoc3)cn(C)c12` and report it.
165 to 167 °C

====

Each record here notes measured melting point.

Record excerpt, results attached:
Find the recorded melting point belonging to `CCCOc1ccc(F)c2c(=O)c(-c3ccc(OC)cc3)cn(CCN3CCOCC3)c12` and report it.
206 to 208 °C

Find the recorded melting point belonging to `CCCOc1cc2c(c3c(=O)c(-c4ccc(OC)cc4)cn(CC(=O)NCCN4CCOCC4)c13)OCCC2` and report it.
201 to 203 °C

Others:
Find the recorded melting point belonging to `CCCOc1ccc(F)c2c(=O)c(-c3ccc(OC)cc3)cn(CCS(=O)(=O)CCCN3CCN(C)CC3)c12.Cl.Cl` and report it.
72 to 74 °C

Find the recorded melting point belonging to `CCCOc1cc2ccccc2c2c(=O)c(-c3ccc(OC)cc3)c[nH]c12` and report it.
172 to 174 °C

Find the recorded melting point belonging to `CCCOc1cc2ccccc2c2c(=O)c(-c3ccoc3)c[nH]c12` and report it.
252 to 254 °C

Find the recorded melting point belonging to `CCCOc1ccc(F)c2c(=O)c(-c3ccc(OC)cc3)cn(CC(=O)N(C)CCN3CCOCC3)c12` and report it.
218 to 220 °C

Find the recorded melting point belonging to `CCCOc1cc2ccccc2c2c(=O)c(-c3ccc(OC)cc3)c(C)[nH]c12` and report it.
204 to 206 °C
